Source of measurements: the supplement of paper PMC11417369

Below, each entry is listed alongside its reported gcPBM binding intensity (ln).
- Tested on: PfSIP2 AP2 domain 1 (GST-tagged)
- experimentDescription: gcPBM binding intensity (ln(normalized median fluorescence intensity)); higher = stronger DNA binding
Whole data set: some 25,000 sequences, median “ln(normalized median fluorescence intensity)” near 7.1, cut for the highest 2% near 10. This excerpt belongs to a sample that is enriched for the highest values.
Give the figure by itself; no unit, no explanation.

Example entries begin here.
GAAAATTTAAAAAGAGTGCATTATATGTTTGAATAT [GTGCAC_site9564] ... 9.18
TTTTATGTTTATGTGGTGCATGTTTTGAAGAAAATA [GTGCAC_site9616] ... 10.3
CTTCTGGACAGGAATGCACACATTTTTTTTTCTTTT [CACACA_site1807] ... 7
TTTTTTTTTTTTTTTGCATGTTGAAAATAAAATTAT [TGCATGCA_site86] ... 6.92

Now for a further sequence.
Using the record for TATATTTGAAATATATGTACTTATAATACAGTTTAA [XGTACX_site8039] , report its gcPBM binding intensity (ln).
6.94

###

- Test system: PfSIP2 AP2 domain 1 (GST-tagged)
- experimentDescription: gcPBM binding intensity (ln(normalized median fluorescence intensity)); higher = stronger DNA binding
The full ranking holds about 25,000 sequences; the median of “ln(normalized median fluorescence intensity)” is about 7.1, and the highest 2% start at about 10. The list comes from a sample in which the highest values are over-represented; it also holds close analogues and randomly drawn sequences.
Where gcPBM binding intensity (ln) equals or exceeds 9, the correct label is Satisfied; where it does not, the label is Not satisfied.

AAAAAAAAAAACAATACATGCATAATATTAATAAAA [TGCATGCA_site913] ... Not satisfied
CTAAAAATCTTTTGTTGTACTTTTAGATAATCAGGA [XGTACX_site3968] ... Not satisfied
ATAAATAAATGGTGTTGTACTCTATTATATATATAT [XGTACX_site7835] ... Not satisfied
AAATACTTAACATTGGTGCATATTTGTAAAATTATT [GTGCAC_site9515] ... Satisfied
ATTTTTTATATTTAGTGTACATGTTTTAATTTATAA [XGTACX_site7512] ... Not satisfied

# check: gcPBM binding intensity (ln) of AACAAATATATTAACACACAAACATATAAACCAATG [CACACA_site3970] is greater than or equal to 9
Not satisfied

Do the same for TTCTTCAATATATTCTTACACACTTAAAAAAAAAAA [CACACA_site228] please
Not satisfied

Do the same for "TATGGGTTTATATAGGTGCAATATATGTATATATAA" please
Satisfied

Do the same for "CAATATATTATATGGGTGCAAACCACATATAAATAA" please
Satisfied

Do the same for CAATAGTTCTTATGGGTGCAAACCACATATATATAA [GTGCAC_site9606] please
Satisfied

Do the same for AATTATATGAAATAAACACACATATGCAATATTGCA [CACACA_site6988] please
Not satisfied

Do the same for TATATATATTTAAGGTGTACATAAATAACAAAATAT [XGTACX_site2641] please
Not satisfied

###

- Test system: PfSIP2 AP2 domain 1 (GST-tagged)
- experimentDescription: gcPBM binding intensity (ln(normalized median fluorescence intensity)); higher = stronger DNA binding
In all, about 25,000 sequences were measured (“ln(normalized median fluorescence intensity)”: median about 7.1, highest 2% from about 10 on). This excerpt belongs to a sample that is enriched for the highest values.
Below, each entry is listed alongside its reported gcPBM binding intensity (ln).
Give the figure by itself; no unit, no explanation.

AATATAAATATAAATATAAATATATATATATATATA [TGCATGCA_negctrl_site603] ... 9.38
TTATTTTAATAACCTACACACATTTTGTATATTTTA [CACACA_site4000] ... 6.81
TGTATAAAAAACTAATGTACAAATGACAAGATATCT [XGTACX_site4600] ... 6.9
TATATATATATATGTGCACACATAAAGATATTATTT [CACACA_site3734] ... 9.38
TGTGCACGTTCTGTGACACACATTTAAATGTGCTTA [CACACA_site176] ... 10.7
AAATAATATATTCTATATAATAAATTATAAATATAA [GTGCAC_negctrl_site558] ... 6.58
TTAAATTACTAATGTGCACACATACTAACGTTTAAA [CACACA_site3573] ... 9.21
CATATTTACTATCACACACACGATATATATAAATAT [CACACA_site1241] ... 7.25

Now for a further sequence.
Using the record for GTTCTAATATATTGCACACGTAAAAATATAGGTAAT [CACACA_site886] , report its gcPBM binding intensity (ln).
7.42

###

- System: PfSIP2 AP2 domain 1 (GST-tagged)
- experimentDescription: gcPBM binding intensity (ln(normalized median fluorescence intensity)); higher = stronger DNA binding
The full ranking holds about 25,000 sequences; the median of “ln(normalized median fluorescence intensity)” is about 7.1, and the highest 2% start at about 10. The sample holds the highest values, similar sequences and a random draw of the others, so the mix is not that of the screen.
resultType: gcPBM binding intensity (ln)
Give the figure by itself; no unit, no explanation.

ATAATAAAAATAAGAGAATAAAAATGCAATTTAATG [CACACA_negctrl_site878] ... 6.81
TGGGCACCCATATACACACACAAATACAATGATAAA [CACACA_site4762] ... 8.64

// fetch PfSIP2 AP2 domain 1 (GST-tagged) gcPBM binding intensity (ln) for CTATTTTATATGTGCACACATATACACCCACAAATA [CACACA_site1131]
9.31

Do the same for CATATAAAAATGTGCACACACACACCCATATATATT [CACACA_site1526] please
9.06

Do the same for CAAAAGGATATGCACACACACACACGGATATTTATA [CACACA_site7099] please
7.41

Do the same for TGCTTATATATACGTGCACACATATATATAAGATAT [CACACA_site8516] please
9.74

Do the same for AAACAAAAAATATATACACACTAAACATAAAAAAAA [CACACA_site4185] please
6.86

###

- Tested on: PfSIP2 AP2 domain 1 (GST-tagged)
- experimentDescription: gcPBM binding intensity (ln(normalized median fluorescence intensity)); higher = stronger DNA binding
Over roughly 25,000 sequences, “ln(normalized median fluorescence intensity)” has its median near 7.1; the highest 2% begin near 10. Only a selection was taken, and the highest values are over-represented in it overall.
Where gcPBM binding intensity (ln) equals or exceeds 7, the correct label is Y; where it does not, the label is N.

TCGTGAATGATTTAAGTACACACCGGTATTTATTCA [CACACA_site1564] ... N
TATGAAGTGCACAATACACACTAATTCTATATAAAT [CACACA_site7269] ... Y
TCTATTTTTTATATGGTGCATTGTTCTTATTAATAT [GTGCAC_site9392] ... Y
TTGTTATTCCACCGTTGTACAGTTATATACATACAC [XGTACX_site8296] ... Y
TTAAGTAGTACATACACACACATATACAAAAAGAAA [CACACA_site3972] ... Y

# check: gcPBM binding intensity (ln) of TATATATATATATGGGTGCATTTTTTTGTCCATGTA [GTGCAC_site9868] is greater than or equal to 7
Y

Do the same for GTATATATATATATATATATATATTTTTATTTATTT [CACACA_negctrl_site589] please
Y

Do the same for TATATATATATATATATATATATGTATGTGCATTTA [TGCATGCA_negctrl_site53] please
Y

Do the same for AACATTATTTTGTGTACACATTCGGTTATATTATAT [CACACA_site5628] please
Y

Do the same for TAAAGATGAAATATCACACATATATAAATATATAAA [CACACA_site4580] please
N

Do the same for AAAAAAAAAAAAAATAGTACAATACCCAAATATAAC [XGTACX_site6684] please
Y

Do the same for "ATTATTTATATTATGGTGCATAATTTTGGGTTTCTT" please
Y

###

- System: PfSIP2 AP2 domain 1 (GST-tagged)
- experimentDescription: gcPBM binding intensity (ln(normalized median fluorescence intensity)); higher = stronger DNA binding
In all, about 25,000 sequences were measured (“ln(normalized median fluorescence intensity)”: median about 7.1, highest 2% from about 10 on). The sample as a whole holds a higher share of the highest values than the screen did.
Where gcPBM binding intensity (ln) equals or exceeds 7, the correct label is true (1); where it does not, the label is false (0).

Observe how each entry below is paired with its result.
CACGTGAAAATACAAGCATGCAAGCTTTTTTTTTCT [TGCATGCA_site642] ... false (0)
TTTTTTTTTTTTTTATGTACACATCTAAAAAAAAGG [XGTACX_site2067] ... true (1)
ATAAAAGAATAAATAAAACACATATATATATATATA [XGTACX_negctrl_site31] ... true (1)
TGTTTTGTTGTGTATTGTACTAATATAAATATATAA [XGTACX_site1852] ... true (1)
CCCCCCCACGAACACACACACATACATACCACATAT [CACACA_site7149] ... true (1)

Okay, now this sequence:
# check: gcPBM binding intensity (ln) of CATTTTTTGCTTTCAACACACATACAATATAAATAA [CACACA_site7858] is greater than or equal to 7
true (1)
